- tested.on: mitochondrial RNA polymerase (POLRMT) (Mus musculus, UniProt Q8BKF1)
- Sequence (Q8BKF1 42-1207): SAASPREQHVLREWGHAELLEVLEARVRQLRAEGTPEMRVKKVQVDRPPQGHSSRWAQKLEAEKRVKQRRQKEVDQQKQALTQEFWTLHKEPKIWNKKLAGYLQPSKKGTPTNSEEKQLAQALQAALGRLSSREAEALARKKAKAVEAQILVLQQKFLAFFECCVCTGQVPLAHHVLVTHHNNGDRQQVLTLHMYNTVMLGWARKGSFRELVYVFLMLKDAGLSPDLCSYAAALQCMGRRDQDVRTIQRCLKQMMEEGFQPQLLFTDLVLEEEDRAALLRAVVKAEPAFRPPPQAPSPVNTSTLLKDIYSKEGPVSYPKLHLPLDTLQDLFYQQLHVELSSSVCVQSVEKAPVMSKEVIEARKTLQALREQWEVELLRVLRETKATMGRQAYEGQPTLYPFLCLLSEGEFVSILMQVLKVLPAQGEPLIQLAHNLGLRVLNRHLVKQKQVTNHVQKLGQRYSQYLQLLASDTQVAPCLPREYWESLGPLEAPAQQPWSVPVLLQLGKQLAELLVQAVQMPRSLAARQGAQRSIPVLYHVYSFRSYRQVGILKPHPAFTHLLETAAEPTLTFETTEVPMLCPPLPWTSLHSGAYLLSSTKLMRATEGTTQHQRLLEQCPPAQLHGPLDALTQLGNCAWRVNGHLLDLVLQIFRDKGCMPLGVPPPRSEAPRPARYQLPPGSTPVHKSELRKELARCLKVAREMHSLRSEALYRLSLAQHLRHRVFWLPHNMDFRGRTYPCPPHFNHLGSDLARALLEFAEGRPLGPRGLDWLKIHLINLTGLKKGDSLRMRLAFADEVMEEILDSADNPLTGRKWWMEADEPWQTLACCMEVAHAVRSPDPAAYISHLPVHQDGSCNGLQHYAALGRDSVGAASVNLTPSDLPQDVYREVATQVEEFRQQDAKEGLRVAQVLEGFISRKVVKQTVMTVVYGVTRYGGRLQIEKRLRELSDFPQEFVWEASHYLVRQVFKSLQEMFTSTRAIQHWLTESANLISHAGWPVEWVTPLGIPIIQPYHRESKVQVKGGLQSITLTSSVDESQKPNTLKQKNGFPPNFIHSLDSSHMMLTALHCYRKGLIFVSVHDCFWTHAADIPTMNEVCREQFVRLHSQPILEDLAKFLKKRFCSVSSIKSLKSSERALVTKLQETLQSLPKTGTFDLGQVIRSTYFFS
pIC50: −log10 of the molar value.
readout.type: pIC50

Enquiry: State its pIC50 for this compound: CCOC(=O)C[C@H]1CCCN(C(=O)[C@@H](C)Oc2ccc3c(-c4ccccc4Cl)cc(Cl)nc3c2)C1
Return: 5.00 to 6.00

Enquiry: Tell me measured pIC50 for Cc1cc(F)cc(C)c1-c1ccnc2cc(O[C@H](C)C(=O)N3CCCC(C4(C(=O)O)CC4)C3)ccc12 (mixture of isomers) please.
Return: > 7.70

Enquiry: Please give the documented pIC50 of C[C@@H](Oc1ccc2c(-c3ccc(F)cc3Cl)ccnc2c1)C(=O)Nc1ccc(CCO)cc1
Return: 5.00 to 6.00

Enquiry: Dear colleague, please send me the reported pIC50 for C[C@@H]1CCCCN1C(=O)[C@@H](C)Oc1ccc2c(-c3c(Cl)cc(F)cc3Cl)ccnc2c1 when you can.
Return: 6.00 to 7.00

Enquiry: Answer with the recorded pIC50 for the compound listed here: CC(C)NC(=O)C(C)Oc1ccc2c(-c3ccc(F)cc3Cl)ccnc2n1 (racemic)
Return: 5.00 to 6.00

Enquiry: In one line, give reported pIC50 of the entry C[C@@H](Oc1ccc2c(-c3ccc(F)cc3Cl)ccnc2c1)C(=O)N1C[C@H]2C[C@@H]1CN2 .
Return: 5.00 to 6.00

Enquiry: Input C[C@@H](Oc1ccc2c(-c3ccccc3Cl)cc(Cl)nc2c1)C(=O)N1CCC[C@H](C(=O)O)C1 , output reported pIC50.
Return: 6.00 to 7.00

Enquiry: Answer with the recorded pIC50 of Cc1cc(F)cc(C)c1-c1ccnc2cc(O[C@H](C)C(=O)N3C(C)CCCC3C)ccc12 (mixture of isomers) only.
Return: > 7.70

Enquiry: Please indicate pIC50 recorded for Cc1cc(-c2c(C)cccc2C)c2ccc(O[C@H](C)C(=O)N3CCC[C@@H](S(N)(=O)=O)C3)cc2n1
Return: 6.00 to 7.00
